Just for reference, paper PMC8911884 is where these values come from.

Each record here notes measured melting point.

Worked set:
COc1cc(N(Cc2ccc(C)cc2)S(=O)(=O)c2ccc3c(c2)CCC(=O)N3)cc(OC)c1OC [Compound D5] | 128 to 130 °C
COc1ccc(OC)c(CN(c2cc(OC)c(OC)c(OC)c2)S(=O)(=O)c2ccc3c(c2)CCC(=O)N3)c1 [Compound D15] | 127 to 129 °C
COc1ccc(CN(c2cc(OC)c(OC)c(OC)c2)S(=O)(=O)c2ccc3c(c2)CCC(=O)N3)cc1 [Compound D13] | 122 to 124 °C
COc1cc(N(Cc2ccc(Cl)cc2)S(=O)(=O)c2ccc3c(c2)CCC(=O)N3)cc(OC)c1OC [Compound D4] | 119 to 121 °C
COc1cc(N(Cc2ccc(N(C)C)cc2)S(=O)(=O)c2ccc3c(c2)CCC(=O)N3)cc(OC)c1OC [Compound D6] | 127 to 129 °C
COc1cc(N(Cc2cccc(C)c2)S(=O)(=O)c2ccc3c(c2)CCC(=O)N3)cc(OC)c1OC [Compound D7] | 120 to 122 °C

## Input Can you share its melting point? I mean this compound: COc1cc(N(Cc2ccccc2F)S(=O)(=O)c2ccc3c(c2)CCC(=O)N3)cc(OC)c1OC [Compound D8]
## Output 138 to 140 °C

## Input Repeat with COc1cccc(CN(c2cc(OC)c(OC)c(OC)c2)S(=O)(=O)c2ccc3c(c2)CCC(=O)N3)c1 [Compound D12]
## Output 121 to 123 °C

## Input Repeat for the following compound: COc1cc(N(Cc2ccccc2Cl)S(=O)(=O)c2ccc3c(c2)CCC(=O)N3)cc(OC)c1OC [Compound D9]
## Output 117 to 119 °C

###

biological target: tubulin (Sus scrofa, UniProt P02550+P02554); experiment: In vitro tubulin polymerization assay (fluorescence kit); conditions: area under fluorescence curve, 37 °C, 40 min
Sequence (P02554 whole entry): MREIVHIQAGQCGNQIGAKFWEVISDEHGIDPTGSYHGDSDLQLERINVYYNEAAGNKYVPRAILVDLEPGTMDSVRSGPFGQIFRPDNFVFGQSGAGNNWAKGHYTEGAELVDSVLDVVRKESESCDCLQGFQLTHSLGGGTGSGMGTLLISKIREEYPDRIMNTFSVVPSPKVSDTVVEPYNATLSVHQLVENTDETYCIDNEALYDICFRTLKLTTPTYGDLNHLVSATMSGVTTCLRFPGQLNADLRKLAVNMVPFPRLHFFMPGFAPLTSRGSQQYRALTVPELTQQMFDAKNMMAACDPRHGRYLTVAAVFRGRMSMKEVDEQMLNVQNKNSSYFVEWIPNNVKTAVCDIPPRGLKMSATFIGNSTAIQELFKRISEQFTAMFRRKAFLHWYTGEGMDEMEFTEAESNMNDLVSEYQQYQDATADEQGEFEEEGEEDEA
Sequence (P02550 whole entry): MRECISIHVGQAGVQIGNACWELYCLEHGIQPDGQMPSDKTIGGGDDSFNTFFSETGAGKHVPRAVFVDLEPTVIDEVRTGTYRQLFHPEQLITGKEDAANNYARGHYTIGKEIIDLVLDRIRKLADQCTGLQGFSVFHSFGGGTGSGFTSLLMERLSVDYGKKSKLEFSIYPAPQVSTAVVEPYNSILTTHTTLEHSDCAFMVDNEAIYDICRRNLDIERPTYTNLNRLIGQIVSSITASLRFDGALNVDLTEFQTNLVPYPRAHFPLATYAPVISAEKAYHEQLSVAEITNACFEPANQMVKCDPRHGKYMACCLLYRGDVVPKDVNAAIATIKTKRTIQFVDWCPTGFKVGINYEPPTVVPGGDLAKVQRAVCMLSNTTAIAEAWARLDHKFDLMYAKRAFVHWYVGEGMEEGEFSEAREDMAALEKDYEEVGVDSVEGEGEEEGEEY
OBSERVATION TYPE: IC50 (µM)
The figure you give is taken to be in µM; do not add the unit.

## Input // lookup IC50 | system=tubulin (Sus scrofa, UniProt P02550+P02554) | key= COc1ccc(CN(c2cc(OC)c(OC)c(OC)c2)S(=O)(=O)c2ccc3c(c2)CCC(=O)N3)cc1
## Output 6.74

###

OBSERVATION TYPE: melting point

Would you please look over these solved cases?
COc1cc(N(Cc2ccc(F)cc2)S(=O)(=O)c2ccc3c(c2)CCC(=O)N3)cc(OC)c1OC [Compound D3] | 108 to 110 °C
COc1ccc(CN(c2cc(OC)c(OC)c(OC)c2)S(=O)(=O)c2ccc3c(c2)CCC(=O)N3)cc1OC [Compound D14] | 116 to 118 °C
COc1cc(N(Cc2ccc(Cl)c(Cl)c2)S(=O)(=O)c2ccc3c(c2)CCC(=O)N3)cc(OC)c1OC [Compound D10] | 123 to 125 °C

Consider the additional compound presented here.
## Input Report melting point for COc1cc(CN(c2cc(OC)c(OC)c(OC)c2)S(=O)(=O)c2ccc3c(c2)CCC(=O)N3)cc(OC)c1OC [Compound D16] please.
## Output 131 to 133 °C
